details: Ebola virus entry assay, reporter ratio channel; Channel type: primary
Activity calls are given as the source filed them. The rule behind the calls is not given here.
Give your call using only these classes: YES = active, NO = inactive

{"COMPOUND": "CN(C)CCc1c[nH]c2ccc(O)cc12", "CLASS_NAME": "NO"}

**Q:** Tell me the recorded outcome of this test for CCCCCOc1ccccc1/C(=C\SC)n1ccnc1 .
**A:** NO

**Q:** Tell me the recorded outcome of this test for CN(C)CCOC(c1ccccc1)c1ccccc1 .
**A:** YES

**Q:** Tell me the recorded outcome of this test for O=C(O)CCCCCCNC1c2ccccc2CCc2ccccc21 .
**A:** NO

**Q:** Tell me the recorded outcome of this test for C#C[C@]1(O)CC[C@H]2[C@@H]3[C@H](C)CC4=C(CCC(=O)C4)[C@H]3CC[C@@]21C .
**A:** YES

**Q:** Tell me the recorded outcome of this test for CC1=C(C)C(=O)C(CCCCC#CCCCC#CCO)=C(C)C1=O .
**A:** NO

**Q:** Tell me the recorded outcome of this test for CCOC(=O)C1(c2ccccc2)CCN(CCc2ccc(N)cc2)CC1 .
**A:** YES

**Q:** Tell me the recorded outcome of this test for Cc1sccc1Br .
**A:** NO
